Test system: perfused porcine liver
assay_text: Atorvastatin normothermic machine perfusion of ex vivo porcine liver, perfusate and bile analysed by LC/MS
Type: in vitro ADME, Sus scrofa domesticus
settings: 0-120 min; Atorva alone; 0.104 mg atorvastatin to portal vein; bile; n = 1
Assignment: determine reported % billiary clearance (metabolite abundance as percentage of given Atorvastatin dose) for the given compounds.
Numbers only, in %.

Some compounds with recorded % billiary clearance (metabolite abundance as percentage of given Atorvastatin dose):
>  <compound>
CC(C)c1c(C(=O)Nc2ccc(O)cc2)c(-c2ccccc2)c(-c2ccc(F)cc2)n1CC[C@@H](O)C[C@@H](O)CC(=O)O [4-hydroxy atorva, 4-hydroxy atorvastatin]

>  <units_text>
%

>  <obs_value>
10.28

$$$$
>  <compound>
CC(C)c1c(C(=O)Nc2ccccc2)c(-c2ccccc2)c(-c2ccc(F)cc2)n1CC[C@@H]1C[C@@H](O)CC(=O)O1 [Atorvastatin lactone]

>  <units_text>
%

>  <obs_value>
9.17

$$$$
>  <compound>
CC(C)c1c(C(=O)Nc2ccc(O)cc2)c(-c2ccccc2)c(-c2ccc(F)cc2)n1CCC1CC(O)CC(=O)O1 (centres unmarked) [4-hydroxy atorva lactone, 4-hydroxy atorvastatin lactone]

>  <units_text>
%

>  <obs_value>
0.400

$$$$
>  <compound>
CC(C)c1c(C(=O)Nc2ccccc2O)c(-c2ccccc2)c(-c2ccc(F)cc2)n1CCC1CC(O)CC(=O)O1 (centres unmarked) [2-hydroxy atorva lactone, 2-hydroxy atorvastatin lactone]

>  <units_text>
%

>  <obs_value>
3.48

$$$$

The recorded % billiary clearance (metabolite abundance as percentage of given Atorvastatin dose) for entry CC(C)c1c(C(=O)Nc2ccccc2O)c(-c2ccccc2)c(-c2ccc(F)cc2)n1CCC(O)CC(O)CC(=O)O (centres unmarked) [2-hydroxy atorva, 2-hydroxy atorvastatin] equals 5.33
